growth inhibition for assorted molecules
# Assay Name: antimalarial activity against Dd2 strain (AID 2302);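 also: 0% = DMSO untreated growth and 100% = chloroquine plus artemisinin killed control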
# Experimental Setup: P. falciparum Dd2 in RBCs, LDH growth readout, 72 h; at 2 µM; hits give high values
Quantity Kind: growth inhibition (%)

Molecule: CCN(CC)CCNC(=O)c1ccc(NC(=O)c2cc3c(C)nn(-c4ccc(Cl)cc4)c3s2)cc1
Data Value: 78
//
Molecule: Cc1[nH]c(C)c(C(F)(F)F)c(=O)c1-c1ccc(Oc2ccc(OC(F)(F)F)cc2)cc1
Data Value: 96
//
Molecule: CCC(C)(C)C1CCc2nc(N)nc(N)c2C1 (stereo unspecified)
Data Value: 97
//
Molecule: COc1ccc2nccc([C@@H](O)CN3CCC(NCc4cc5ccccc5cn4)CC3)c2n1
Data Value: 14
//
Molecule: COc1ccc(NC(=O)/C=C/c2cc(Br)ccc2F)cc1OCCN(C(C)C)C(C)C
Data Value: 14
//
Molecule: O=C(/C=C/c1ccc(Cl)cc1)NCCCCCN1CCC(c2c[nH]c3ccccc23)CC1
Data Value: 15

###

# Assay Name: human hepatoma cell viability loss – ATP luminescence, cytotoxicity control for P. falciparum antimalarial project, primary screen (AID 2303);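 also: 0% = DMSO wells and 100% = digitonin-killed cells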
# Experimental Setup: HepG2 viability, 24-48 h, at 10 µM
Calls of active or inactive are those of the source.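 The calls were made as follows: active = inhibition above 50%; inactive = the rest.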
Labels: active, inactive

Compound: CC(C)[C@H](NC(=O)c1ccc(O)c(-c2cccc(C(F)(F)F)c2)c1)C(=O)NCCN1CCCCC1
Cat: inactive
//
Compound: CCCCCCOc1ccccc1C(=O)NCCOc1ccc(Cl)cc1
Cat: inactive
//
Compound: O=S(=O)(ON=C1CCc2ccccc21)c1ccc(Cl)cc1
Cat: inactive
//
Compound: OC(CNCc1ccccc1Oc1ccccc1)c1cccc(C(F)(F)F)c1 (stereo not given)
Cat: inactive
//
Compound: COc1ccc(-c2ccc(CNCc3ccsc3)cc2)cc1S(=O)(=O)NCCN1CCCC1
Cat: inactive
//
Compound: Cc1cc(CN2CCC(Nc3ncc(-c4ccsc4)c4nc(C(F)(F)F)ccc34)CC2)no1
Cat: inactive
//
Compound: CCOc1ccc(Br)cc1/C=C/C(=O)Nc1ccc2c(c1)CN(C)CCC2
Cat: inactive
//
Compound: O=S(=O)(Nc1cccc(CCN2CCCCC2CCN2CCCC2)c1)c1cccc2ccccc12 (stereo not given)
Cat: inactive
//
Compound: COc1ccccc1C1CCN(C2CCC(NC(=O)/C=C/c3ccc(OC(F)(F)F)cc3)CC2)CC1 (stereo not given)
Cat: active
//
Compound: O=C(NC(Nc1ccc([N+](=O)[O-])cc1)C(Cl)(Cl)Cl)c1ccc(Cl)cc1 (stereo not given)
Cat: inactive
//
Compound: COc1ccc2nc(C)cc(Nc3ccc(Cl)c(Cl)c3)c2c1
Cat: inactive
//
Compound: CCN(CC)CCCNc1c2ccccc2nc2ccccc12
Cat: inactive
//
Compound: CC1(C)C(=O)Nc2ccc3c(c21)CC1SC(=O)NN=C31 (stereo not given)
Cat: inactive
//
Compound: NC(N)=Nc1ccc(NC(=O)Nc2ccc(N=C(N)N)cc2)cc1
Cat: inactive
//
Compound: Cc1cc(N[C@@H](CC(C)C)C(=O)NCCOc2ccccc2)nc(NCCc2ccc(F)cc2)n1
Cat: inactive

###

# Assay Name: inhibition of 3D7 malaria parasite growth – strain 3D7 (AID 2306);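 also: 0% = DMSO wells and 100% = chloroquine plus artemisinin control wells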
# Experimental Setup: P. falciparum 3D7 erythrocytic growth, LDH absorbance, 72 h; at 2 µM; hits give high values
growth inhibition for assorted compounds
Quantity Kind: growth inhibition (%)

Compound: N[C@@H](Cc1cc(I)c(Oc2ccc(O)c(C(=O)O)c2)c(I)c1)C(=O)O
Quantity Kind: growth inhibition
Data Value: 97

Compound: CC(=O)c1ccc(-c2ccc(C(=O)NCCCCN3CCC(c4ccc5c(c4OCC(N)=O)CCCC5)CC3)cc2)s1
Quantity Kind: growth inhibition
Data Value: 90

Compound: Cc1c(C(=O)[C@@H]2C[C@H]2CN2CCC(N3CCCC3)CC2)sc2ccccc12
Quantity Kind: growth inhibition
Data Value: 94

Compound: CN(Cc1cccc(F)c1)C1CCCN(c2cc(NC(=O)c3ccccc3)ccn2)C1 (configuration not stated)
Quantity Kind: growth inhibition
Data Value: 93

Compound: Nc1cnc(C#Cc2cc3ncnc(N(CCN4CCOCC4)c4ccc(OCc5cccc(F)c5)c(Cl)c4)c3s2)cn1
Quantity Kind: growth inhibition
Data Value: 87

Compound: COc1ccc(CN2CCCC(Nc3ccc(F)c(F)c3)C2)c(O)c1 (configuration not stated)
Quantity Kind: growth inhibition
Data Value: 95

Compound: O=C(Nc1cccc(C(F)(F)F)c1)Nc1nc2ccc([N+](=O)[O-])cc2s1
Quantity Kind: growth inhibition
Data Value: 102
